Hello, the source for this data is patent US9980943B2, in case you need it.

- Test system: β-galactosidase in CMV-LacZ C2C12 myotubes
- measurementProtocol: CMV-LacZ secondary screen in C2C12 myotubes (β-Gal stabilizing assay)
- Type: cell-based, mouse
- runParameters: 40 uM; CMV-LacZ C2C12 myotubes; 96-well format
experimentalEndpoint: CMV-LACZ in Myotubes (β-galactosidase activity relative to DMSO)
Lab note: write the figure by itself, no unit.

In the examples that follow, each entry is paired with its recorded CMV-LACZ in Myotubes (β-galactosidase activity relative to DMSO).
1) CCS(=O)(=O)N1CCCC(C(=O)c2ccc(OC)cc2C)C1 (centres unmarked)	1.043
2) O=Cc1cnc(N2CCCCC2)s1	1.031
3) CC(=O)c1cccc(NC(=O)C2CCCN(S(=O)(=O)c3cccc4nonc34)C2)c1 (centres unmarked)	0.9682
4) O=C(NC1CCCC1)c1ccc(CS(=O)(=O)Cc2ccccc2F)o1	0.9912

# evaluate next
Report CMV-LACZ in Myotubes (β-galactosidase activity relative to DMSO) for `COCc1c(C(=O)OCc2nc3ccsc3c(=O)[nH]2)oc2ccccc12` please.
1.066

###

- Test system: β-galactosidase in CMV-LacZ C2C12 myoblasts
- measurementProtocol: CMV-LacZ secondary screen in C2C12 myoblasts (β-Gal stabilizing assay)
- Format: cell-based, mouse
- runParameters: 5 uM; SU9516 analogs, C2C12 CMV-LacZ, N=2
Below, each of the molecules is paired with its reported CMV-LACZ in Myoblasts, value relative to DMSO value.
Lab note: write the figure by itself, no unit.

In the examples that follow, each entry is paired with its recorded CMV-LACZ in Myoblasts, value relative to DMSO.
1. Cc1cc(C)c(/C=C2\C(=O)Nc3ccccc32)[nH]1 [NCGC00094381-05]	0.9614
2. COc1ccc2c(c1)/C(=C\c1cccc(/C=C3/C(=O)Nc4ccc(OC)cc43)n1)C(=O)N2	2.6344
3. O=C1Nc2ccccc2/C1=C/c1ccc([N+](=O)[O-])cc1	0.9068
4. Cc1ccccc1/C=C1\C(=O)Nc2ccc(F)cc21	1.0010
5. Cc1[nH]c(/C=C2\C(=O)Nc3ccc(S(=O)(=O)Cc4c(Cl)cccc4Cl)cc32)c(C)c1C(=O)C1CCCN1CN1CCCC1 (centres unmarked)	1.6977

Report CMV-LACZ in Myoblasts, value relative to DMSO for `N#C/C(=C1/C(=O)Nc2ccc(Br)cc21)c1ccccn1` please.
0.8366

Report CMV-LACZ in Myoblasts, value relative to DMSO for O=Nc1c(-c2c(O)[nH]c3ccccc23)[nH]c2ccccc12 [NCGC00015545-07] please.
0.7896

Report CMV-LACZ in Myoblasts, value relative to DMSO for `NC(=O)COc1ccc(C(=O)/C=C2/C(=O)Nc3ccccc32)cc1` please.
0.7949

###

- Test system: α7 integrin (LacZ reporter in α7+/LacZ myotubes)
- measurementProtocol: Myotube α7 integrin FDG assay (Burkin assay in myotubes, 96-well)
- Format: cell-based, mouse
- runParameters: myotubes, 40 uM
experimentalEndpoint: Burkin Assay in Myotubes, α7 integrin LacZ reporter signal relative to DMSO
Lab note: write the figure by itself, no unit.

Report Burkin Assay in Myotubes, α7 integrin LacZ reporter signal relative to DMSO for Cc1cc(OCC(=O)NC(C)C)ccc1Cl [MLS000684034-01] please.
0.7385

Report Burkin Assay in Myotubes, α7 integrin LacZ reporter signal relative to DMSO for COc1ccc(NC(=O)C2(N(C(=O)Cn3nnnc3N)c3ccc(OC)cc3)CCCCC2)cc1 [MLS001030268-01] please.
0.7606

###

- Test system: β-galactosidase in CMV-LacZ C2C12 myotubes
- measurementProtocol: CMV-LacZ secondary screen in C2C12 myotubes (β-Gal stabilizing assay)
- Format: cell-based, mouse
- runParameters: 40 uM; C2C12 CMV-LacZ myotubes; fold relative to DMSO
Below, each of the compounds is paired with its reported CMV-LACZ in Myotubes, signal relative to DMSO value.

In the examples that follow, each entry is paired with its recorded CMV-LACZ in Myotubes, signal relative to DMSO.
1) Cn1cc(CN(CCO)Cc2cccs2)c(-c2ccccc2F)n1	1.0329
2) CCOC(=O)c1nnn(-c2nonc2OC)c1-c1ccccc1	0.9424
3) CCNC(=O)COC(=O)c1cc(-c2ccco2)nc2ccccc12	1.088

Report CMV-LACZ in Myotubes, signal relative to DMSO for `COc1cc([N+](=O)[O-])cc(/C=N/NC(=O)C(O)(c2ccccc2)c2ccccc2)c1O` please.
1.1230

Report CMV-LACZ in Myotubes, signal relative to DMSO for `Cc1ccc(-c2nc(C)sc2CC(=O)OCC(=O)Nc2c(F)cccc2F)cc1` please.
0.8668

Report CMV-LACZ in Myotubes, signal relative to DMSO for CCOC(=O)C1=C(CC)Nc2ccccc2N=C1NC(=O)c1ccc(OC)c(S(=O)(=O)N2CCCCC2C)c1 (centres unmarked) please.
1.1540

Report CMV-LACZ in Myotubes, signal relative to DMSO for CC(Oc1ccccc1)C(=O)N1CCN(C(=O)C(C)Oc2ccccc2)CC1 (centres unmarked) please.
1.05

###

- System: β-galactosidase in CMV-LacZ C2C12 myotubes
- measurementProtocol: CMV-LacZ secondary screen in C2C12 myotubes (β-Gal stabilizing assay)
- Format: cell-based, mouse
- runParameters: 1 uM; C2C12 CMV-LacZ myotubes; fold relative to DMSO
Below, each of the compounds is paired with its reported CMV-LACZ in Myotubes, signal relative to DMSO value.
Lab note: write the figure by itself, no unit.

In the examples that follow, each entry is paired with its recorded CMV-LACZ in Myotubes, signal relative to DMSO.
1) C/C(=N\NC(=O)c1cc(C)oc1C)c1ccc2ccccc2c1	0.9162
2) CC(O)CNc1nc2c(c(=O)n(Cc3ccc(Br)cc3)c(=O)n2C)n1C (stereo not drawn)	0.8152
3) O=C(CNC(=O)c1cccc(F)c1)N/N=C/c1cc(Br)ccc1OCc1ccccc1	1.0726
4) Cc1cc([N+](=O)[O-])ccc1NC(=O)C(C)N1CCN(c2ccccn2)CC1 (stereo not drawn)	1.1432
5) O=C(Nc1ccccc1Cl)C1CCCN1C(=O)OCc1ccccc1 (stereo not drawn)	0.7970

Report CMV-LACZ in Myotubes, signal relative to DMSO for `COc1ccc(N=Nc2ccc(N)nc2N)cc1` please.
0.9714

Report CMV-LACZ in Myotubes, signal relative to DMSO for `O=C(c1ccccc1)N1CCN(S(=O)(=O)c2cccs2)CC1` please.
0.8644

###

Below, each of the molecules is paired with its reported CMV-LACZ in Myotubes, signal relative to DMSO value.
- Test system: β-galactosidase in CMV-LacZ C2C12 myotubes
- measurementProtocol: CMV-LacZ secondary screen in C2C12 myotubes (β-Gal stabilizing assay)
- Assay type: cell-based, mouse
- runParameters: 5 uM; C2C12 CMV-LacZ myotubes; fold relative to DMSO

1) Cc1cc(C)cc(-n2nnc(C(=O)NCc3ccccc3Cl)c2N)c1	0.8081
2) CNC(=O)/C(=C\c1cccc(Oc2ccccc2)c1)NC(=O)c1ccccc1	0.8142
3) O=[N+]([O-])c1cccc(S(=O)(=O)N2CCN(S(=O)(=O)N3CCOCC3)CC2)c1	1.018
4) COC(=O)C(=O)C/C(=N/Nc1ncnc2ccccc12)c1ccc(Cl)cc1	0.8551
5) CCNC(=O)CSc1nc(-c2ccc(F)cc2)cs1	1.068
6) CCC(C)n1[nH]c(=O)cc1N (centres unmarked)	1.2058

Report CMV-LACZ in Myotubes, signal relative to DMSO for `CSc1ccc(S(=O)(=O)NCc2ccccc2)cc1` please.
0.8757

Report CMV-LACZ in Myotubes, signal relative to DMSO for `CCN(CC)C(=O)c1sc2nc(-c3ccc(OC)cc3)cn2c1C` please.
0.9400

###

- System: α7 integrin (LacZ reporter in α7βgal+/− myoblasts)
- measurementProtocol: Myoblast α7+/LacZ integrin FDG assay (Burkin assay in myoblasts, 96-well)
- Type: cell-based, mouse
- runParameters: 20 uM; α7+/LacZ myoblasts, 96-well
Please assign class 0 whenever Burkin Assay in Myoblasts, signal relative to DMSO is at or above 1, and class 1 whenever it is below.

Past entries and their recorded results:
1. COC(=O)c1ccccc1NC(=O)c1cc[n+]([O-])cc1 [MLS001167169-01]	class 1
2. Cn1c(O)c(C(C#N)=C2N=c3ccccc3=N2)c2ccccc21 [MLS000536064-01]	class 1
3. COc1ccc(C(=O)Cn2nnc(-c3ccccc3NC(=O)c3ccco3)n2)cc1 [MLS000072290-01]	class 1
4. CCOc1ccccc1NC(=O)c1cccc2c1C(=O)N(C1CCCCC1)C2 [MLS000912726-01]	class 0
5. O=C(COc1ccc(Cl)cc1)N1CCN(C2CCCC2)CC1.O=C(O)C(=O)O [MLS001221318-01]	class 0
6. O=C(Nc1cc(-c2nc3ccccc3s2)ccc1Cl)c1ccc2c(c1)OCO2 [MLS000560266-01]	class 1

# strict comparison: is reported Burkin Assay in Myoblasts, signal relative to DMSO < 1? input = CC1CCCCN1c1ncnc(N)c1[N+](=O)[O-] (stereo not drawn) [MLS000683234-01]
class 0
